From: patent US6372737B1

# Tested on: Erysiphe graminis f.sp. hordei
# Experiment: Erysiphe test (barley)/curative
# Format: in vivo
# Study Conditions: application rate 6.25 g/ha, curative, 7 days after inoculation
# Method: Solvent: 25 parts by weight of N,N-dimethylacetamide Emulsifier: 0.6 part by weight of alkylaryl polyglycol ether To produce a suitable preparation of active compound, 1 part by weight of active compound or active compound combination is mixed with the stated amounts of solvent and emulsifier, and the concentrate is diluted with water to the desired concentration. To test for curative activity, young plants are dusted with spores of Erysiphe graminis f.sp. hordei. […]
Measurement Kind: Efficacy in % (%)
The answer is to be given in %; state only the numeric part.

CC(C)(C)C(O)(CCc1ccc(Cl)cc1)Cn1cncn1 (centres unmarked) :: 33
CC1(C)CCC(Cc2ccc(Cl)cc2)C1(O)Cn1cncn1 (centres unmarked) :: 33
CCCN(CC)CC1COC2(CCC(C(C)(C)C)CC2)O1 (centres unmarked) :: 0
CON=C(C1=NOCCO1)c1ccccc1Oc1ncnc(Oc2ccccc2Cl)c1F :: 0

Okay, now this compound:
// query Efficacy in % value for entry CC(C)(C)C(O)C(Oc1ccc(Cl)cc1)n1cncn1 (centres unmarked)
67
